Provide the reported MIC of each item.
Tested on: P. aeruginosa MMA83
Experiment: Antimicrobial microdilution assay (MIC/MBC)
Format: cell-based, Pseudomonas aeruginosa
Conditions: Pseudomonas aeruginosa, MMA83; 37 °C, 24 h; read-out: MIC
Experimental: The bacterial suspension (0.5 Mc Farland) was prepared, and twenty-fold dilutions of these suspensions were mixed in a 1:10 ratio with the corresponding polyphenol dilution (0.0039–1 mg/mL). Microtiter plates were incubated at 37 °C for 24 h. The lowest concentrations without visible growth (under a binocular microscope) were defined as MICs. The bactericidal concentrations (MBCs) were determined by serial subcultivation of 2 μL of the well’s content and further incubation for 24 h at 37 °C. […]
Answers are plain numbers, in µg/mL.

Below, each entry is followed by its recorded MIC result.
{"compound": "O=C(O)c1cc(O)c(O)c(O)c1", "study system": "P. aeruginosa MMA83", "MIC (µg/mL)": 1000}
{"compound": "O=c1c(O[C@@H]2O[C@H](CO)[C@@H](O)[C@H](O)[C@H]2O)c(-c2ccc(O)c(O)c2)oc2cc(O)cc(O)c12", "study system": "P. aeruginosa MMA83", "MIC (µg/mL)": 250}

Dear colleague, could you send me MIC for each of the items below? Thanks.
1. COc1ccc([C@@H]2CC(=O)c3c(O)cc(O)cc3O2)cc1O
2. O=C(O)/C=C/c1ccc(O)cc1
3. O=C(/C=C/c1ccc(O)c(O)c1)O[C@@H]1C[C@](O)(C(=O)O)C[C@@H](O)[C@H]1O
4. O=c1c(O)c(-c2ccc(O)cc2O)oc2cc(O)cc(O)c12

**A:**
[1000, 500, 1000, 1000]

Working through the 2 compounds below one at a time, give MIC for each.
1. O=C1C[C@@H](c2ccc(O)cc2)Oc2cc(O)cc(O)c21
2. O=C1c2c(O)cc(O)cc2OC(c2ccc(O)c(O)c2)C1O (centres unmarked)

**A:**
1000
1000

---

tested on: K. pneumoniae Ni9; experiment: Antimicrobial microdilution assay (MIC/MBC); assay type: cell-based, Klebsiella pneumoniae; details: Klebsiella pneumoniae, NI9; 37 °C, 24 h; read-out: MIC
quantity kind: MIC (µg/mL)
One number for each entry, in µg/mL.

Below: 3 molecules and their reported MIC.
{"molecule": "O=C1C[C@@H](c2ccc(O)cc2)Oc2cc(O)cc(O)c21", "study system": "K. pneumoniae Ni9", "quantity kind": "MIC", "observed measurement": 250}
{"molecule": "O=c1c(O[C@@H]2O[C@H](CO)[C@@H](O)[C@H](O)[C@H]2O)c(-c2ccc(O)c(O)c2)oc2cc(O)cc(O)c12", "study system": "K. pneumoniae Ni9", "quantity kind": "MIC", "observed measurement": 500}
{"molecule": "O=C(O)c1cc(O)c(O)c(O)c1", "study system": "K. pneumoniae Ni9", "quantity kind": "MIC", "observed measurement": 1000}

Let us move to another entry and its MIC.
get_value(item= "O=c1c(O)c(-c2ccc(O)cc2O)oc2cc(O)cc(O)c12" , readout=MIC) returns 500

---

test system: K. pneumoniae IT977; assay: Antimicrobial microdilution assay (MIC/MBC); format: cell-based, Klebsiella pneumoniae; conditions: Klebsiella pneumoniae, IT977; subcultivation, 24 h at 37 °C; read-out: MBC
quantity kind: MBC

// each compound listed below needs its MBC
1. O=C(/C=C/c1ccc(O)c(O)c1)O[C@@H]1C[C@](O)(C(=O)O)C[C@@H](O)[C@H]1O
2. O=c1c(O)c(-c2ccc(O)cc2O)oc2cc(O)cc(O)c12
3. O=C1c2c(O)cc(O)cc2OC(c2ccc(O)c(O)c2)C1O (stereo not drawn)

**A:**
1: > 1000 µg/mL; 2: > 1000 µg/mL; 3: > 1000 µg/mL
